Origin of the recorded values: patent US20150166606A1

Entries annotated with measured Factor XIIa IC50
- experimental_system: T1, Factor XIIa (Enzyme Research Laboratories) (human, UniProt P00748 20-615, limits assumed)
- T1 sequence (looked up): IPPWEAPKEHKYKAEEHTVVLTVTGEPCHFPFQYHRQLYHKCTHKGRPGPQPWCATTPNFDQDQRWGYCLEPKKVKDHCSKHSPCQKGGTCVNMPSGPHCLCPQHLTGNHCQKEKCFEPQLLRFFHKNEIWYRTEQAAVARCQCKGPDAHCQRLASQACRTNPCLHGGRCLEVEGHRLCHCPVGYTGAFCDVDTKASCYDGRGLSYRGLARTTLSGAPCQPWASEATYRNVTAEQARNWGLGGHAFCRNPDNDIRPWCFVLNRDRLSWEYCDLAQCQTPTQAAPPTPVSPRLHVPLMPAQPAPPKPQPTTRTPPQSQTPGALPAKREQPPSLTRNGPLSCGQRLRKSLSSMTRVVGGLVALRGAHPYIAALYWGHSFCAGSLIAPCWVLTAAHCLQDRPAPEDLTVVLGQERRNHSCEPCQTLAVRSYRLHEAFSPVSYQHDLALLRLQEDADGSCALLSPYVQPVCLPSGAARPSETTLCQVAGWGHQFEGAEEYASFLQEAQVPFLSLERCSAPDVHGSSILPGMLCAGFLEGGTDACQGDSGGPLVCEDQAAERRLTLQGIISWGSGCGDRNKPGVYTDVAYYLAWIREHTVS
- method_summary: cell-based or functional assay
Bridge positions count the residues as written; N and C are the ends. Square brackets hold non-standard residues; d marks the D form. Ends that are not written are not given here. mXylyl = xylyl linker from dibromoxylene joining the two cysteines; des‑NH2 = missing amino-terminal amine group; Tle = CC(C)(C)[C@H](N)C(=O)O; NMeS = CN[C@@H](CO)C(=O)O

{"columns": ["binder", "metric_name", "recorded_value"],
 "data": [
  ["MCE[NMeS]ICRV-NH2 (linker 2-6 via mXylyl) [R2019]", "Factor XIIa IC50", "> 12.5 µM"],
  ["MCESICRV-NH2 (linker 2-6 via mXylyl) [R2006]", "Factor XIIa IC50", "> 100 µM"]
]}

Indicate the recorded Factor XIIa IC50 value for this binder: MCNYWSPWTECSA-NH2 (cysteine pairing not given here) [R2104]
> 100 µM

Indicate the recorded Factor XIIa IC50 value for this binder: MCESICR[Tle]-NH2 (linker 2-6 via mXylyl) [R2010]
> 100 µM

Indicate the recorded Factor XIIa IC50 value for this binder: {des‑NH2}-CESICRV-NH2 (linker 1-5 via mXylyl; not fully specified (residue 1); printed as [mXylyl(1,5)](des-NH2)C-ESICRV-NH2) [R2051]
> 100 µM
